Recorded measurements of Cell Binding hCD3 (FOB), one per entry
Target: T1, Human CD3 on Human CD3+ Jurkat cells (human, UniProt P07766 23-207)
T1 construct: whole, on cells; CD3 complex on cells; also called hCD3
T1 sequence (P07766 23-207): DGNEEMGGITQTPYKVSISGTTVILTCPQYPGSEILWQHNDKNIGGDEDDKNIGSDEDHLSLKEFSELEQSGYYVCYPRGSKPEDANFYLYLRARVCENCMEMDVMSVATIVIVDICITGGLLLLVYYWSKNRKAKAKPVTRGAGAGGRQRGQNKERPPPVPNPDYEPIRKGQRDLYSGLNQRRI
Assay: cell binding hCD3, fold over background
Report the value in FOB with no unit label.

Here's what some known entries look like.
binder: ADI-45963 (antibody, V domains shown, also called Ab26) VH: QVQLVQSGAEVKKPGAPVKVSCKASGFNIKDYYMHWVRQAPGQRLEWIGWIDLENANTVYDAKFQGRVTITRDTSASTAYMELSSLRSEDTAVYYCARDAYGRYFYDVWGQGTLVTVSS VL: DIVMTQSPDSLAVSLGERATINCKSSQSLLNARTGKNYLAWYQQKPGQPPKLLIYWASTRESGVPDRFSGSGSGTDFTLTISSLQAEDVAVYYCKQSYFRRTFGGGTKVEIK
unit-info: FOB
Cell Binding hCD3 (FOB): 14

binder: ADI-46371 (antibody, V domains shown, also called Ab35) VH: QAQLVQSGAEVKKPGASVKVSCKASGFNIKDYYMHWVRQAPGQRPEWIGWIDLENANTVYDAKFQGRVTITRDTSASTAYMELSSLRSEDTAAYYCARDAYGRYFYDVWGQGTLVTVSS VL: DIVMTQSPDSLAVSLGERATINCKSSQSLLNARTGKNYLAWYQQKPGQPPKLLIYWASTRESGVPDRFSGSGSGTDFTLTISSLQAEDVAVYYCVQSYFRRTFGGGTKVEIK
unit-info: FOB
Cell Binding hCD3 (FOB): 47

Please look at the following binder next.
Q: GET /values?readout=Cell Binding hCD3 (FOB)&item= ADI-46359 (antibody, V domains shown, also called Ab42) VH: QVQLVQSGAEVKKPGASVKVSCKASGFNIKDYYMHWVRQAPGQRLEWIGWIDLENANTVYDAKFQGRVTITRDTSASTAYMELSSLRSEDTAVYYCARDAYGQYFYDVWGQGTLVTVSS VL: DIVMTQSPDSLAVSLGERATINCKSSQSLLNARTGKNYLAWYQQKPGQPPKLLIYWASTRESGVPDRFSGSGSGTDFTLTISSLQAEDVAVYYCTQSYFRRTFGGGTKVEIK
Ans: 43

Data origin: patent US20260209352A1
